# measurement target: hCB1 (Homo sapiens, UniProt P21554)
# Sequence (P21554 whole entry): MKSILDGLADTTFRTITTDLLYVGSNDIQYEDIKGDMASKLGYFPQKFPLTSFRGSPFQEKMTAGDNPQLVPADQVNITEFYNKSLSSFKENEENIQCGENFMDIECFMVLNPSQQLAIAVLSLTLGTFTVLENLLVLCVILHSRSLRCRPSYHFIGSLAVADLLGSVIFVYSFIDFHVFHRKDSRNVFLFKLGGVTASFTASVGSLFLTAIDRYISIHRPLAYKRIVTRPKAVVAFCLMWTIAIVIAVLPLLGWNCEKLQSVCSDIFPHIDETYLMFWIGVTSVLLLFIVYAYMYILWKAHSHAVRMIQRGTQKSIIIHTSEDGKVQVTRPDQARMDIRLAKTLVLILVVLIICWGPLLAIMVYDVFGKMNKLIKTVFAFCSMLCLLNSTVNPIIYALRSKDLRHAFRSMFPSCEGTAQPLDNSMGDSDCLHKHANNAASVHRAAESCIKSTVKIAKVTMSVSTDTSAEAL
# assay explanation: bioSensAll ebBRET signaling profiling, hCB1
# Format: cell-based
# Parameters: host or cells: HEK293SL cells, transient PEI transfection
# measurement conditions: Gi1 biosensor; Log [Compound] (M) -11.0177
For each record, write down the corresponding Gi1 hCB1 response.
API doc: respond with a numeric literal and nothing else, no unit.

Prompt: Specify Gi1 hCB1 response for Cc1cc(C(=O)N(C)C(c2ccco2)c2ccco2)nn1-c1cccc(C(F)(F)F)c1 [‘4388] and stop.
Completion: 9.836

Prompt: Specify Gi1 hCB1 response for Cc1cc(C(=O)NC(c2ccco2)c2ccco2)nn1-c1cccc(C(F)(F)F)c1 [‘1090] and stop.
Completion: -1.668

Prompt: Specify Gi1 hCB1 response for COC(=O)C(NC(=O)c1cc(C)n(-c2cccc(F)c2)n1)c1cccs1 (centres unmarked) [‘51486] and stop.
Completion: -4.935

Prompt: Specify Gi1 hCB1 response for Cc1cc(C(=O)N2CC3(CCC3)[C@H]2[C@H]2CCCO2)nn1-c1cccc(C(F)(F)F)c1 [‘1651] and stop.
Completion: 3.525

Prompt: Specify Gi1 hCB1 response for Cc1cc(C(=O)NC(c2ccccc2)c2ccco2)nn1-c1cccc(C#N)c1 (centres unmarked) [‘12565] and stop.
Completion: -2.317

Prompt: Specify Gi1 hCB1 response for COC(=O)[C@@H]1[C@@H]2CCC[C@@H]2CN1C(=O)c1cc(C)n(-c2cccc(Cl)c2)n1 (racemic) [‘10010] and stop.
Completion: -15.9247

Prompt: Specify Gi1 hCB1 response for COc1cccc(C(NC(=O)c2cc(C)n(-c3cccc(C(F)(F)F)c3)n2)c2ccco2)c1 (centres unmarked) [‘1087] and stop.
Completion: 6.211

Prompt: Specify Gi1 hCB1 response for COC(=O)[C@@H]1[C@@H]2CC[C@@H]2CN1C(=O)c1cc(C)n(-c2cccc(C(F)(F)F)c2)n1 [‘6448] and stop.
Completion: -16.4171

Prompt: Specify Gi1 hCB1 response for Cc1cc(C(=O)N2CC3(CCC3)[C@@H]2[C@H]2CCCO2)nn1-c1cccc(C(F)(F)F)c1 (single isomer, unassigned) [compound 430] and stop.
Completion: -4.667

Prompt: Specify Gi1 hCB1 response for Cc1cc(C(=O)N2CC3(CCC3)[C@H]2[C@@H]2CCCO2)nn1-c1cccc(C(F)(F)F)c1 [‘5490] and stop.
Completion: 13.5964

Prompt: Specify Gi1 hCB1 response for Cc1cc(C(=O)N2CC3(CCC3)[C@@H]2[C@@H]2CCCO2)nn1-c1cccc(C(F)(F)F)c1 [‘3386] and stop.
Completion: 14.3798

Prompt: Specify Gi1 hCB1 response for CC(=O)C(c1cccs1)N(C)C(=O)c1cc(C)n(-c2cccc(C(F)(F)F)c2)n1 (centres unmarked) [‘6829] and stop.
Completion: -9.456

Prompt: Specify Gi1 hCB1 response for COC(=O)[C@](C)(NC(=O)c1cc(C)n(-c2cccc(C(F)(F)F)c2)n1)c1cccs1 [‘8690] and stop.
Completion: -2.272

Prompt: Specify Gi1 hCB1 response for Cc1cc(C(=O)N(C)C(c2ccccc2)c2ccco2)nn1-c1cccc(C(F)(F)F)c1 (centres unmarked) [‘1082] and stop.
Completion: -6.256

Prompt: Specify Gi1 hCB1 response for COC(=O)C(NC(=O)c1cc(C)n(-c2cccc(C(F)(F)F)c2)n1)c1cccs1 (centres unmarked) [‘60154] and stop.
Completion: -14.1566

Prompt: Specify Gi1 hCB1 response for COC(=O)[C@@H]1[C@@H]2CCC[C@@H]2CN1C(=O)c1cc(C)n(-c2cccc(C(F)(F)F)c2)n1 [‘6439] and stop.
Completion: 0.7271

Prompt: Specify Gi1 hCB1 response for Cc1cc(C(=O)NC(c2ccccc2)c2ccco2)nn1-c1cccc(C(F)(F)F)c1 (centres unmarked) [‘1081] and stop.
Completion: -17.939

###

For each record, write down the corresponding Gi1 hCB1.
# measurement target: hCB1 (Homo sapiens, UniProt P21554)
# assay explanation: bioSensAll ebBRET signaling profiling, hCB1
# Assay type: cell-based
# Set-up: host or cells: HEK293SL cells, transient PEI transfection
# measurement conditions: Log [Compound] (M) -11.4949; single replicate values, FigS6a
API doc: respond with a numeric literal and nothing else, no unit.

Prompt: Write down measured Gi1 hCB1 (hCB1 (Homo sapiens, UniProt P21554)) for this compound. CC(=O)C(c1cccs1)N(C)C(=O)c1cc(C)n(-c2cccc(C(F)(F)F)c2)n1 (centres unmarked)
Completion: 2.879

Prompt: Write down measured Gi1 hCB1 (hCB1 (Homo sapiens, UniProt P21554)) for this compound. COC(=O)C(NC(=O)c1cc(C)n(-c2cccc(C(F)(F)F)c2)n1)c1cccs1 (centres unmarked)
Completion: 1.6461

Prompt: Write down measured Gi1 hCB1 (hCB1 (Homo sapiens, UniProt P21554)) for this compound. Cn1nc(-c2nnc(C(C)(C)Oc3ccc(Cl)cc3)o2)c2ccccc2c1=O
Completion: -5.872

Prompt: Write down measured Gi1 hCB1 (hCB1 (Homo sapiens, UniProt P21554)) for this compound. COC(=O)[C@@H]1[C@@H]2CC[C@@H]2CN1C(=O)c1cc(C)n(-c2cccc(C(F)(F)F)c2)n1
Completion: -0.1268

Prompt: Write down measured Gi1 hCB1 (hCB1 (Homo sapiens, UniProt P21554)) for this compound. Brc1cc2c(cc1Cc1noc(-c3cnn(CC4CC4)c3)n1)OCO2
Completion: -2.008

Prompt: Write down measured Gi1 hCB1 (hCB1 (Homo sapiens, UniProt P21554)) for this compound. Cc1nn(Cc2ccc(Cl)cc2)c(C)c1C(=O)OCC1CSc2ccccc2O1 (centres unmarked)
Completion: -1.279

Prompt: Write down measured Gi1 hCB1 (hCB1 (Homo sapiens, UniProt P21554)) for this compound. Cc1cc(C(=O)NC(c2ccccc2)c2ccco2)nn1-c1cccc(C#N)c1 (centres unmarked)
Completion: 0.2894

Prompt: Write down measured Gi1 hCB1 (hCB1 (Homo sapiens, UniProt P21554)) for this compound. Cc1cc(C(=O)N2CC3(CCC3)[C@@H]2[C@H]2CCCO2)nn1-c1cccc(C(F)(F)F)c1 (single isomer, unassigned)
Completion: 0.5207

Prompt: Write down measured Gi1 hCB1 (hCB1 (Homo sapiens, UniProt P21554)) for this compound. Cc1c(C(=O)OCC2CSc3ccccc3O2)cnn1Cc1ccccc1 (centres unmarked)
Completion: -2.61

Prompt: Write down measured Gi1 hCB1 (hCB1 (Homo sapiens, UniProt P21554)) for this compound. Cc1cc(C(=O)N2CC3(CCC3)[C@H]2[C@H]2CCCO2)nn1-c1cccc(C(F)(F)F)c1
Completion: 1.492

Prompt: Write down measured Gi1 hCB1 (hCB1 (Homo sapiens, UniProt P21554)) for this compound. COC(=O)[C@@H]1[C@@H]2CCC[C@@H]2CN1C(=O)c1cc(C)n(-c2cccc(C(F)(F)F)c2)n1
Completion: -0.6201

Prompt: Write down measured Gi1 hCB1 (hCB1 (Homo sapiens, UniProt P21554)) for this compound. Cc1cc(C(=O)N(C)C(c2ccccc2)c2ccco2)nn1-c1cccc(C(F)(F)F)c1 (centres unmarked)
Completion: 1.415

Prompt: Write down measured Gi1 hCB1 (hCB1 (Homo sapiens, UniProt P21554)) for this compound. Cc1cc(C(=O)N(C)C(c2ccco2)c2ccco2)nn1-c1cccc(C(F)(F)F)c1
Completion: 2.232

Prompt: Write down measured Gi1 hCB1 (hCB1 (Homo sapiens, UniProt P21554)) for this compound. COc1cccc(C(NC(=O)c2cc(C)n(-c3cccc(C(F)(F)F)c3)n2)c2ccco2)c1 (centres unmarked)
Completion: 4.128

Prompt: Write down measured Gi1 hCB1 (hCB1 (Homo sapiens, UniProt P21554)) for this compound. COC(=O)[C@@H]1[C@@H]2CCC[C@@H]2CN1C(=O)c1cc(C)n(-c2cccc(Cl)c2)n1 (racemic)
Completion: 2.417

Prompt: Write down measured Gi1 hCB1 (hCB1 (Homo sapiens, UniProt P21554)) for this compound. Cc1cc(C(=O)NC(c2ccco2)c2ccco2)nn1-c1cccc(C(F)(F)F)c1
Completion: 3.6965

Prompt: Write down measured Gi1 hCB1 (hCB1 (Homo sapiens, UniProt P21554)) for this compound. COC(=O)C(NC(=O)c1cc(C)n(-c2cccc(F)c2)n1)c1cccs1 (centres unmarked)
Completion: 0.1507

###

# measurement target: CB1 (rCB1) (Rattus norvegicus)
# Sequence (P20272 whole entry): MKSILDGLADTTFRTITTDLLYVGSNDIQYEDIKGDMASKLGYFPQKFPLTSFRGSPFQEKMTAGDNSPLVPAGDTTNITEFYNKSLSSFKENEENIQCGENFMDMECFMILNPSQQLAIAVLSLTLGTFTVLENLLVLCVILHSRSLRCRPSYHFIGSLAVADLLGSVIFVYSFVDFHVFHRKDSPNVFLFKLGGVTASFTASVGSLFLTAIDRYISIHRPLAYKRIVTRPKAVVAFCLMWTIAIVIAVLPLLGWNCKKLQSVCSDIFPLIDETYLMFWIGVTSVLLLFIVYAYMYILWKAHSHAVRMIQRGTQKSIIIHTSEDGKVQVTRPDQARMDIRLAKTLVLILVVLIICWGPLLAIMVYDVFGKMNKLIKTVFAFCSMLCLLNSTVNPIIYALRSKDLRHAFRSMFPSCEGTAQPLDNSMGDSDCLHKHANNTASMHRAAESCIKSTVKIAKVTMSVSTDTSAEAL
# assay explanation: Radioligand competition binding, [3H]-CP-55,940, rat brain membranes
# measurement conditions: vs parent hit or analog without the change
For each record, write down the corresponding fold improvement in CB1R affinity.

Prompt: Write down measured fold improvement in CB1R affinity (CB1 (rCB1) (Rattus norvegicus)) for this compound. COC(=O)C(NC(=O)c1cc(C)n(-c2cccc(C(F)(F)F)c2)n1)c1cccs1 (stereo not shown)
Completion: 17 fold

Prompt: Write down measured fold improvement in CB1R affinity (CB1 (rCB1) (Rattus norvegicus)) for this compound. Cc1cc(C(=O)NC(C)(c2ccccc2)c2ccco2)nn1-c1cccc(C(F)(F)F)c1 (stereo not shown)
Completion: ~15 fold

Prompt: Write down measured fold improvement in CB1R affinity (CB1 (rCB1) (Rattus norvegicus)) for this compound. COC(=O)[C@@](C)(NC(=O)c1cc(C)n(-c2cccc(C(F)(F)F)c2)n1)c1cccs1
Completion: ~50 fold

The measured values listed here are drawn from paper PMC11882969.
